For each of the binders below, state its FACS M2-HK MFI.
assayed system: M2 protein of influenza A/Hong Kong/483/97 (H5N1) (influenza A virus A/Hong Kong/483/97 (H5N1))
Please give a number only; it is taken to be in MFI.

Provide only the value of recorded FACS M2-HK MFI for 3252_C13 (antibody, V domains shown) VH: QVQLQESGPGLVKPSETLSLTCTVSGASISSDYWSWIRLPPGKGLEWIGYIYNRGSTKYTPSLKSRVTISLDTAENQFSLRLRSVTAADTAIYYCARHVGGHTYGIDYWGQGTLVTVSS VL: DIQMTQSPSSLSASVGDRVTITCRASQSISNYLNWYQHKPGEAPKLLNYAASSLQSGVPSRFSASGSGTDFTLTISSLQPEDFATYYCQQSYNTPITFGQGTRLEIK
449

Provide only the value of recorded FACS M2-HK MFI for 3245_O19 (antibody, V domains shown) VH: EVQLVESGGGLVQPGGSLRLSCTASGLSVSSTYMNWVRQAPGKGLEWVSVFYSETRTYYADSVKGRFTVSRHNSNNTLYLQMNSLRVEDTAVYYCARVQRLSYGMDVWGQGTTVTVSS VL: DIQMTQSPSSLSASVGDRVTITCRASQSISTYLNWYQKRPGKAPKLLVYGASTLQSGVPSRFSGSGSGTDFTLTIASLQPEDSATYYCQQTYSIPLFGQGTRLEIK
919

Provide only the value of recorded FACS M2-HK MFI for 3255_J06 (antibody, V domains shown) VH: QVQLQESGPGLVKPSETLSLTCTVSGASISSDYWSWIRLPPGKGLEWIGYIYNRGSTKYTPSLKSRVTISLDTAENQFSLRLRSVTAADTAVYYCARHVGGHTYGIDYWGQGTLVTVSS VL: DIQMTQSPSSLSASVGDRVTITCRASQSISNYLNWYQHKPGEAPKLLNYAASSLQSGVPSRFSASGSGTDFTLSISGLQPEDFATYYCQQSYNTPITFGPGTRLEIK
442
